Biological target: Sko1 (UniProt Q02100)
Sequence: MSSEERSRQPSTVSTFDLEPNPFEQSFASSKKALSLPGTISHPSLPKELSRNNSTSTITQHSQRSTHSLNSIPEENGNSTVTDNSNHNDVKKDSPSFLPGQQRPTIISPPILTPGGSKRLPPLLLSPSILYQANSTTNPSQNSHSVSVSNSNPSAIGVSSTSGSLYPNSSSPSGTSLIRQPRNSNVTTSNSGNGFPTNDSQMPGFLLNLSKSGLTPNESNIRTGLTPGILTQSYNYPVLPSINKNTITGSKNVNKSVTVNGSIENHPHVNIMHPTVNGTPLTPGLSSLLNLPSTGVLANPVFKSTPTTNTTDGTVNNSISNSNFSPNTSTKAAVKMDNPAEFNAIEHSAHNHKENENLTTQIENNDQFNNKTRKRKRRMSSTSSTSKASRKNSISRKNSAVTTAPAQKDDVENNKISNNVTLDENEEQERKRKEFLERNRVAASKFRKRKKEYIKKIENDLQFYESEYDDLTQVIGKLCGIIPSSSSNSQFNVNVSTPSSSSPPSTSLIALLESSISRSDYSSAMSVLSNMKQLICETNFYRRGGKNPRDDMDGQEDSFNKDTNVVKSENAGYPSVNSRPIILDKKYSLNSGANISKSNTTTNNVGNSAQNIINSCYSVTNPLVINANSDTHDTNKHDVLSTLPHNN
Test: PBM E-score (8-mer binding enrichment) (E-score (-0.5 to 0.5)); higher = stronger / more preferred TF binding
Conditions: protein concentration: 200 nM; construct: GST-full length
Over roughly 33,000 sequences, “E-score (-0.5 to 0.5)” has its median near -0.032; the highest 2% begin near 0.36. Only a selection was taken, and the highest values are over-represented in it overall.
Rule: PBM E-score under 0.4 gives not fulfilled, otherwise fulfilled.

AAGTAAAT; not fulfilled

Tell me whether PBM E-score is at least 0.4 here: GCGTACAA
not fulfilled

Tell me whether PBM E-score is at least 0.4 here: ACGTATAA
fulfilled

Tell me whether PBM E-score is at least 0.4 here: CCACGCAG
not fulfilled

Tell me whether PBM E-score is at least 0.4 here: ACGTATAG
fulfilled

Tell me whether PBM E-score is at least 0.4 here: ACGTATAC
fulfilled
